Measured values drawn from paper PMC9982066 for this set.

Target: Ehrlichia translocated factor-1 (Etf-1) (Ehrlichia chaffeensis, UniProt Q2GG12 1-380)
Experiment: fluorescence polarisation
Details: both partners purified
pKd: −log10 of the molar value. Starred links: 1 amine or outer side, 2 acyl side, 3 side chain; linkers in the order of their positions; H or OH if unused. Positions of bridges follow the written chain, without caps; N, C: chain ends. Non-standard residues stand in square brackets, D forms with d. No end group written: not given here. Trimesoyl = O=C(c1cc(C(=O)[*:2])cc(C(=O)[*:3])c1)[*:1]; Phe(3-Cl) = N[C@@H](Cc1cccc(Cl)c1)C(=O)O; 2Nal = N[C@@H](Cc1ccc2ccccc2c1)C(=O)O; d2Nal = N[C@H](Cc1ccc2ccccc2c1)C(=O)O; Phg = N[C@H](C(=O)O)c1ccccc1; Dap = NC[C@H](N)C(=O)O; TMA = not defined here; βAla = NCCC(=O)O
So basically: pKd at 5 or higher? That is 1. Lower than 5? That is -1.

Recorded results for 5 binders are shown here.
binder | label-value
YHQ[dP]S[dL][Dap][Phg][d2Nal][dR]R[dR]R[Dap]-{βAla-βAla-Lys(FAM)} (linker N-7-14 via Trimesoyl; not fully specified (N-terminus)) [macrocyclic peptide B7-14, FAM-labelled] | 1
YHQ[dP]S[dL][Dap][Phe(3-Cl)][d2Nal][dR]R[dR]R[Dap]-{βAla-βAla-Lys(FAM)} (linker N-7-14 via Trimesoyl; not fully specified (N-terminus)) [macrocyclic peptide B7-17, FAM-labelled] | 1
YHQ[dP]S[dL][Dap]F[d2Nal][dR]A[dR]R[Dap]-{βAla-βAla-Lys(FAM)} (linker 7-14 via TMA; reading uncertain; also: TMA third attachment point not given here) [macrocyclic peptide B7-10, FAM-labelled] | -1
YHQ[dP]S[dL][Dap]F[d2Nal][dR]R[dA]R[Dap]-{βAla-βAla-Lys(FAM)} (linker 7-14 via TMA; reading uncertain; also: TMA third attachment point not given here) [macrocyclic peptide B7-11, FAM-labelled] | -1
YHQ[dP]S[dL][Dap][2Nal][d2Nal][dR]R[dR]R[Dap]-{βAla-βAla-Lys(FAM)} (linker N-7-14 via Trimesoyl; not fully specified (N-terminus)) [macrocyclic peptide B7-21, FAM-labelled] | 1

# check: pKd of YHQ[dP]S[dA][Dap]F[d2Nal][dR]R[dR]R[Dap]-{βAla-βAla-Lys(FAM)} (linker 7-14 via TMA; reading uncertain; also: TMA third attachment point not given here) [macrocyclic peptide B7-1, FAM-labelled] is greater than or equal to 5
-1

# check: pKd of YHQ[dP]A[dL][Dap]F[d2Nal][dR]R[dR]R[Dap]-{βAla-βAla-Lys(FAM)} (linker N-7-14 via Trimesoyl; not fully specified (N-terminus)) [macrocyclic peptide B7-2, FAM-labelled] is greater than or equal to 5
1
